- measurement notes: FFA solubility at different formulation pH at constant PS20 concentration, fit to modified Henderson-Hasselbalch equation
- Assay type: physicochemical
- condition label: formulation containing polysorbate 20 (PS20); constant of the 'pH term' of the FFA solubility model (Equation 1); read-out: Experimentally determined pKa (β2)
parameter measured: pKa
Please state the value as a number alone, without comment.

CCCCCCCCCCCC(=O)O ... 5.71

Could you tell me which pKa is on file for "CCCCCCCCCCCCCC(=O)O" ?
6.67

* * *

- measurement notes: FFA solubility at different formulation pH at constant PS20 concentration, fit to modified Henderson-Hasselbalch equation
- Type: physicochemical
- condition label: formulation containing PS20, aqueous with cosolvent or surfactant or cyclodextrin; constant of the 'pH term' of the FFA solubility model (Equation 1); read-out: Solubility of the non-ionized FFA (β1)
parameter measured: solubility (µg/mL)
# output: bare number, implied unit µg/mL

CCCCCCCCCCCC(=O)O ... 9.97

I have this compound here, "CCCCCCCCCCCCCC(=O)O" , and I need its recorded solubility.
3.87

The measured values listed here are drawn from patent US12691178B2.
